Attribution: patent US20210253725A1

Measured On: T1, CD27 protein (His-tagged, Sino Biological Inc. 10039-H08B1) (human, UniProt P26842 20-192)
T1 construct: bought; coated onto ELISA plates; also called human CD27; recombinant protein; not shown: His tag
T1 sequence (looked up): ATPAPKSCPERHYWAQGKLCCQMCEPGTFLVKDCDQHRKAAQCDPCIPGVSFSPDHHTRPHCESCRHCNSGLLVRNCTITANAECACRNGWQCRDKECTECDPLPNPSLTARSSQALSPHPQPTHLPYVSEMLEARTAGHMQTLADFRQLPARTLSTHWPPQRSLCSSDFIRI
Procedure Details: ELISA on coated His-tagged CD27; further: test concentration or dose not given here
Observed Property: ELISA [abs. corr.] (abs. corr.)
Response body: numeric value in abs. corr., unit text excluded.

Binder	Quantitative Result
P018.S.08.A.G02 (antibody, V domains shown, V regions on human Ig constant parts; also called AB27_141) VH: QSVEESGGRLVTPGTPLTLTCTVSGFSLSTYAMSWVRQAPGKGLEWIGMNTRSGIIYYASWAKGRFTISKTSTTVHLKITSPTTEDTATYFCARDLYADVSGYYLGLWGPGTLVTVSS VL: AQVLTQTPSSVSAAVGGTVTINCQASQSLYNNKNLAWYQQKPGQPPKLLIYYASTLASGVSSRFKGSGSGTQFTLTISDLESDDAATYYCQGEFICSSADCVVFGGGTAVVVK	3.32

Challenge: Supply ELISA [abs. corr.] value. Item: P018.S.09.A.D05 (antibody, V domains shown, V regions on human Ig constant parts; also called AB27_152) VH: QSLEESGGRLVTPGGSLTLTCTVSGIDLSSYAMDWVRQAPGKGLEWIGVIGAGGSTYYASWANGRFTISKTSTTVDLKISSPTTEDTATYFCARDIGGDYSSRYYFSLWGPGTLVTVSS VL: DIVMTQTPASVEAAVGGTVTIKCQASQSTSTALAWYQQKPGQRPKLLIYDSSKLASGVPSRFSGSGSGTEFTLTISGVQSDDAASYYCQQGYNINNVAFGGGTEVVVK
Response given: 3.28
